// provenance: patent US11236129B2

- Procedure Summary: Isoelectric point, log D and log P (SiriusT3)
- Format: physicochemical
- Stated Conditions: pH 7.4, pH 7.4, octanol/ISA water; read-out: Log D (7.4)
Residues, ends and D or L forms follow the SMILES beside them.
Reported Property: logD
Lab note: jot the number down without any unit.

CC[C@H](C)[C@H](NC(=O)[C@@H](NC(=O)[C@@H](NC(=O)[C@H](Cc1c[nH]cn1)NC(=O)[C@@H](NC(C)=O)C(C)C)C(C)C)[C@@H](C)O)C(=O)N1CCC[C@H]1C(=O)N[C@@H](C)C(=O)N[C@@H](CC(=O)O)C(=O)N[C@@H](CC(C)C)C(=O)N[C@@H](Cc1c[nH]c2ccccc12)C(=O)N[C@@H](CCC(=O)O)C(=O)N[C@@H](Cc1c[nH]c2ccccc12)C(=O)N[C@@H](Cc1ccccc1)C(=O)N[C@@H](CCCNC(=N)N)C(=O)N[C@@H](CCCNC(=N)N)C(N)=O [SEQ ID NO: 121] (Ac-VHVTIPADLWEWFRR-NH2)
-1.47

// below: logD requested for another molecule
Retrieve logD measured for CC[C@H](C)[C@H](NC(C)=O)C(=O)N[C@@H](Cc1c[nH]cn1)C(=O)N[C@H](C(=O)N[C@H](C(=O)N[C@H](C(=O)N1CCC[C@H]1C(=O)N[C@@H](C)C(=O)N[C@@H](CCC(=O)O)C(=O)N[C@@H](CC(C)C)C(=O)N[C@@H](Cc1c[nH]c2ccccc12)C(=O)N[C@@H](CC(=O)O)C(=O)N[C@@H](Cc1c[nH]c2ccccc12)C(=O)N[C@H](C(=O)N[C@@H](CC(N)=O)C(=O)N[C@@H](CCCCN)C(N)=O)[C@@H](C)CC)[C@@H](C)CC)[C@@H](C)O)C(C)C [SEQ ID NO: 5] (Ac-IHVTIPAELWDWINK-NH2) and print it.
-1.26

====

- Target Of Assay: IL-17RA/IL17RC dimerization induced by IL-17A (Homo sapiens, UniProt Q16552)
- Sequence (Q16552 24-155): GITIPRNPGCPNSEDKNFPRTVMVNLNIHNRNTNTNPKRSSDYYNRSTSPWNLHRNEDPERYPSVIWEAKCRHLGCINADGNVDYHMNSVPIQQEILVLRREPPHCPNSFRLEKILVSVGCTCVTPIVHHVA
- Procedure Summary: IL-17RA/IL17RC dimerization assay in response to IL-17A (PathHunter Cytokine Receptor Assay)
- Format: cell-based
- Stated Conditions: IL-17A at EC80; read-out: IC50 in IL-17RA/IL7RC dimerization assay
pIC50: −log10 of the molar value. Residues, ends and D or L forms follow the SMILES beside them.
Form field: pIC50 (one value per entry).

CC[C@H](C)[C@H](NC(C)=O)C(=O)N[C@@H](Cc1c[nH]cn1)C(=O)N[C@H](C(=O)N[C@H](C(=O)N[C@H](C(=O)N1CCC[C@H]1C(=O)N[C@@H](CC(C)C)C(=O)N[C@@H](CCC(=O)O)C(=O)N[C@H](C(=O)N[C@@H](Cc1ccccc1)C(=O)N[C@@H](CCC(=O)O)C(=O)N[C@@H](Cc1c[nH]c2ccccc12)C(=O)N[C@@H](CC(C)C)C(=O)N[C@@H](CCC(N)=O)C(=O)N[C@@H](Cc1c[nH]cn1)C(N)=O)C(C)C)[C@@H](C)CC)[C@@H](C)O)C(C)C [SEQ ID NO: 249] (Ac-IHVTIPLEVFEWLQH-NH2)
> 5.00
CC[C@H](C)[C@H](NC(C)=O)C(=O)N[C@@H](Cc1c[nH]cn1)C(=O)N[C@H](C(=O)N[C@H](C(=O)N[C@H](C(=O)N[C@@H](C)C(=O)N[C@@H](C)C(=O)N[C@@H](CC(=O)O)C(=O)N[C@@H](CC(C)C)C(=O)N[C@@H](Cc1c[nH]c2ccccc12)C(=O)N[C@@H](CC(=O)O)C(=O)N[C@@H](Cc1c[nH]c2ccccc12)C(=O)N[C@H](C(=O)N[C@@H](CC(N)=O)C(=O)N[C@@H](CCCCN)C(N)=O)[C@@H](C)CC)[C@@H](C)CC)[C@@H](C)O)C(C)C [SEQ ID NO: 186] (Ac-IHVTIAADLWDWINK-NH2)
> 5.00
CC[C@H](C)[C@H](NC(C)=O)C(=O)N[C@@H](Cc1c[nH]cn1)C(=O)N[C@H](C(=O)N[C@H](C(=O)N[C@H](C(=O)N1CCC[C@H]1C(=O)N[C@H](C(=O)N[C@@H](CC(=O)O)C(=O)N[C@@H](CC(C)C)C(=O)N[C@@H](Cc1c[nH]c2ccccc12)C(=O)N[C@@H](CC(=O)O)C(=O)N[C@@H](Cc1c[nH]c2ccccc12)C(=O)N[C@H](C(=O)N[C@@H](CC(N)=O)C(=O)N[C@@H](CCCCN)C(N)=O)[C@@H](C)CC)C(C)C)[C@@H](C)CC)[C@@H](C)O)C(C)C [SEQ ID NO: 195] (Ac-IHVTIPVDLWDWINK-NH2)
> 5.00

// below: pIC50 requested for another molecule
Retrieve pIC50 measured for CC(=O)N[C@H](C(=O)N[C@@H](Cc1c[nH]cn1)C(=O)N[C@@H](Cc1ccccc1)C(=O)N[C@@H](CCC(N)=O)C(=O)N[C@@H](Cc1ccccc1)C(=O)N1CCC[C@H]1C(=O)N[C@@H](CCC(N)=O)C(=O)N[C@@H](CC(=O)O)C(=O)N[C@@H](CC(C)C)C(=O)N[C@@H](Cc1c[nH]c2ccccc12)C(=O)N[C@@H](CCC(=O)O)C(=O)N[C@@H](Cc1c[nH]c2ccccc12)C(=O)N[C@H](C(=O)N[C@@H](CCCNC(=N)N)C(=O)N[C@@H](CCCNC(=N)N)C(N)=O)C(C)C)C(C)C [SEQ ID NO: 150] (Ac-VHFQFPQDLWEWVRR-NH2) and print it.
> 6.30

====

- Procedure Summary: Isoelectric point, log D and log P (SiriusT3)
- Type: physicochemical
- Stated Conditions: logP
Residues, ends and D or L forms follow the SMILES beside them.
Reported Property: logP
Lab note: jot the number down without any unit.

Would you please look over these solved cases?
CC[C@H](C)[C@H](NC(C)=O)C(=O)N[C@@H](Cc1c[nH]cn1)C(=O)N[C@H](C(=O)N[C@H](C(=O)N[C@H](C(=O)N1CCC[C@H]1C(=O)N[C@@H](C)C(=O)N[C@@H](CC(=O)O)C(=O)N[C@@H](CC(C)C)C(=O)N[C@@H](Cc1ccc(O)cc1)C(=O)N[C@@H](CC(=O)O)C(=O)N[C@@H](Cc1c[nH]c2ccccc12)C(=O)N[C@H](C(=O)N[C@@H](CC(N)=O)C(=O)N[C@@H](CCCCN)C(N)=O)[C@@H](C)CC)[C@@H](C)CC)[C@@H](C)O)C(C)C [SEQ ID NO: 6] (Ac-IHVTIPADLYDWINK-NH2)
-0.37
CC[C@H](C)[C@H](NC(C)=O)C(=O)N[C@@H](Cc1c[nH]cn1)C(=O)N[C@H](C(=O)N[C@H](C(=O)N[C@H](C(=O)N1CCC[C@H]1C(=O)N[C@@H](C)C(=O)N[C@@H](CC(=O)O)C(=O)N[C@@H](CC(C)C)C(=O)N[C@@H](Cc1c[nH]c2ccccc12)C(=O)N[C@@H](CC(=O)O)C(=O)N[C@@H](Cc1c[nH]c2ccccc12)C(=O)N[C@H](C(=O)N[C@@H](CCC(=O)O)C(=O)N[C@@H](CCCCN)C(N)=O)[C@@H](C)CC)[C@@H](C)CC)[C@@H](C)O)C(C)C [SEQ ID NO: 11] (Ac-IHVTIPADLWDWIEK-NH2)
1.05
CC[C@H](C)[C@H](NC(C)=O)C(=O)N[C@@H](Cc1c[nH]cn1)C(=O)N[C@H](C(=O)N[C@H](C(=O)N[C@H](C(=O)N1CCC[C@H]1C(=O)N[C@@H](C)C(=O)N[C@@H](CC(=O)O)C(=O)N[C@@H](CC(C)C)C(=O)N[C@@H](Cc1c[nH]c2ccccc12)C(=O)N[C@@H](CC(=O)O)C(=O)N[C@@H](Cc1c[nH]c2ccccc12)C(=O)N[C@H](C(=O)N[C@@H](CCCNC(=N)N)C(=O)N[C@@H](CCCNC(=N)N)C(N)=O)C(C)C)[C@@H](C)CC)[C@@H](C)O)C(C)C [SEQ ID NO: 14] (Ac-IHVTIPADLWDWVRR-NH2)
-5.4

// below: logP requested for another compound
Retrieve logP measured for CC[C@H](C)[C@H](NC(C)=O)C(=O)N[C@@H](Cc1c[nH]cn1)C(=O)N[C@H](C(=O)N[C@H](C(=O)N[C@H](C(=O)N1CCC[C@H]1C(=O)N[C@@H](C)C(=O)N[C@@H](CC(=O)O)C(=O)N[C@@H](CC(C)C)C(=O)N[C@@H](Cc1c[nH]c2ccccc12)C(=O)N[C@@H](CC(=O)O)C(=O)N[C@@H](Cc1c[nH]c2ccccc12)C(=O)N[C@H](C(=O)N[C@@H](CCCNC(=N)N)C(=O)N[C@@H](CCCCN)C(N)=O)[C@@H](C)CC)[C@@H](C)CC)[C@@H](C)O)C(C)C [SEQ ID NO: 9] (Ac-IHVTIPADLWDWIRK-NH2) and print it.
-0.53
